These measurements were taken from paper PMC10065799.

Molecular target: c-Abl kinase domain (Mus musculus)
Sequence (P00520 242-493 limits assumed): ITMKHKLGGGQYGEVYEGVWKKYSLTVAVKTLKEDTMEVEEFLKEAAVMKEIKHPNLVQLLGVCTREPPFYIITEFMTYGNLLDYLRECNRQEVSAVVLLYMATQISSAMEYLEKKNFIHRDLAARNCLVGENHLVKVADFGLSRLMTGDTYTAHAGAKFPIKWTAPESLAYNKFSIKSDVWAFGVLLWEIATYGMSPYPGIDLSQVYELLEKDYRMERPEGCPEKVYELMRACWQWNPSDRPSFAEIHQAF
Test: pTyr-Var library bacterial peptide display kinase screen (enrichment scores);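 note: log2 fold change in enrichment of variant over reference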
Assay type: biochemical
Settings: fig5-data2, sheet "Abl"; Screen for the variant/reference peptide pair, pTyr-Var library
readout.type: Screen
Answers are plain numbers.

c-Abl kinase domain (Mus musculus) / Screen / MLEAPYVDRNS [F10_Y384_V382A] : value? 1.1

Entry FRAVKYLQMVG [AVPR2_Y117_C112Y_YF] please 1.48

Entry DAAEDYAEGVC [DHODH_Y194_R199C] please -0.7613

Entry DDSNPYINVKL [MTHFD1_Y52_L51P] please -0.8391

Entry SSSAIYDNPDL [DCP1B_Y191_N195D] please 1.925

Entry FSMGCYEFSLG [HMGCL_Y198_I200F_YF] please 1.5

Let us move to another entry and its Screen.
c-Abl kinase domain (Mus musculus) / Screen / FVPSNYVAEDR [FRK_Y104_I100V_YF] : value? 0.1639
